# experimental target: HLA-A*11:01
# measurement notes: IEDB peptide-MHC binding, purified MHC/competitive/fluorescence; filed as Kd, often an IC50 or EC50 that approximates it; bounds were set here for any values at or beyond the usual limits of such assays
# conditions: source organism: Vaccinia virus Copenhagen
experimental readout: Kd

1. NRLKPRDFK :: ≥ 20 µM

* * *

# experimental target: HLA-A*26:01
# measurement notes: IEDB peptide-MHC binding, purified MHC/direct/fluorescence; filed as Kd, often an IC50 or EC50 that approximates it; bounds were set here for any values at or beyond the usual limits of such assays
# conditions: source organism: Vibrio parahaemolyticus
This listing pairs sequences with measured Kd.
experimental readout: Kd

1. NSDPEFNVL :: ≥ 20 µM
2. VMETENALF :: ≥ 20 µM
